Just for reference, patent US11426397B2 is where these values come from.

study-target: GPR6 receptor expressed in CHO-K1 cells (Homo sapiens, UniProt P46095)
Construct: expressed in transfected cells
Sequence (P46095 whole entry): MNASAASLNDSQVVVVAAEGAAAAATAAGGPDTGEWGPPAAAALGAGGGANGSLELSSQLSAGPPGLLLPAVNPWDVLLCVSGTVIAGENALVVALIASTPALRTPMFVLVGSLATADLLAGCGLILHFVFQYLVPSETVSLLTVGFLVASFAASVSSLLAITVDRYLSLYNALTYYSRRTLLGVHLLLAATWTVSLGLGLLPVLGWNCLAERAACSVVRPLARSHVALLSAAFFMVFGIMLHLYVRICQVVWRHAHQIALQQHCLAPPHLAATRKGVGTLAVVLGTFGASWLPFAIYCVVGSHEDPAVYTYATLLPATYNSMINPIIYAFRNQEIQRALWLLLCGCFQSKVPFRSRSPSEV
protocol-details: In vitro inhibition of cAMP (EC50), cell-based HTRF cAMP assay
condition-notes: inhibition of constitutive cAMP activity of GPR6 in CHO-K1 cells
observable: pEC50, in vitro inhibition of cAMP

{"columns": ["smiles-text", "study-target", "reported-relation", "test-value"],
 "data": [
  ["COc1cccc(CN2CCN(c3ncc(C#N)cc3NC(=O)c3cn(C)nc3OC)CC2)c1", "GPR6 receptor expressed in CHO-K1 cells (Homo sapiens, UniProt P46095)", "=", 6.4],
  ["COc1ccc(Cl)c(OC)c1C(=O)Nc1cc(C#N)ccc1N1CCC(Oc2ccc(F)cc2F)CC1", "GPR6 receptor expressed in CHO-K1 cells (Homo sapiens, UniProt P46095)", "<", 4.5],
  ["N#Cc1ccc(N2CCC(Oc3ccc(F)cc3F)CC2)c(NC(=O)c2cccc3c2OCC3)c1", "GPR6 receptor expressed in CHO-K1 cells (Homo sapiens, UniProt P46095)", "=", 7.4],
  ["Cn1cc(C(=O)Nc2cc(C#N)ccc2N2CCC(Oc3ccc(F)cc3F)CC2)nn1", "GPR6 receptor expressed in CHO-K1 cells (Homo sapiens, UniProt P46095)", "=", 6.6]
]}

----------
study-target: GPR6 receptor expressed in CHO-K1 cells (Homo sapiens)
Construct: expressed in transfected cells
protocol-details: In vitro inhibition of cAMP (EC50), cell-based HTRF cAMP assay
condition-notes: inhibition of constitutive cAMP activity of GPR6 in CHO-K1 cells
observable: pEC50, in vitro inhibition of cAMP

{"columns": ["smiles-text", "reported-relation", "test-value"],
 "data": [
  ["COc1ccnc(C(=O)Nc2cc(C#N)ccc2N2CCC(Oc3ccc(F)cc3F)CC2)n1", "<", 4.5],
  ["COc1ncc(F)cc1C(=O)Nc1ccc(C)nc1N1CCN(Cc2ccc(F)cc2)CC1", "=", 6.8],
  ["COc1ncccc1C(=O)Nc1cc(C#N)ccc1N1CCN(Cc2ccc(F)cc2C#N)CC1", "=", 6.9],
  ["COc1ccc(CN2CCN(c3ncc(C#N)cc3NC(=O)c3cn(C)nc3OC)CC2)c(F)c1", "=", 7.1],
  ["COc1nn(C)cc1C(=O)Nc1cc(C#N)ncc1N1CCN(Cc2cc(F)c(F)c(F)c2)CC1", "=", 6.4],
  ["COc1ncccc1C(=O)Nc1cc(C#N)ccc1N1CCN(Cc2ccc(F)cn2)CC1", "=", 6.3],
  ["CCNC(=O)c1cc(N2CCC(Oc3ccc(F)cc3F)CC2)c(NC(=O)c2cccnc2OC)cn1", "=", 7.0],
  ["COc1ncccc1C(=O)Nc1cc(C#N)ncc1N1CCC(Oc2ccc(F)cc2F)CC1", "=", 7.2],
  ["COc1ncc(C)cc1C(=O)Nc1cc(C(=O)N(C)C)cnc1N1CCC(Oc2ccc(F)cc2F)CC1", "=", 6.9]
]}

----------
study-target: GPR6 receptor expressed in CHO-K1 cells (Homo sapiens, UniProt P46095)
Construct: expressed in transfected cells
protocol-details: In vitro inhibition of cAMP (EC50), cell-based HTRF cAMP assay
condition-notes: inhibition of constitutive cAMP activity of GPR6 in CHO-K1 cells

{"columns": ["smiles-text", "pEC50, in vitro inhibition of cAMP"],
 "data": [
  ["COc1ccc(C(=O)Nc2cc(C#N)ccc2N2CCC(Oc3ccc(F)cc3F)CC2)nc1", 7.1],
  ["COc1ccc(C(=O)Nc2cc(C#N)ccc2N2CCC(Oc3ccc(F)cc3F)CC2)c(OC)n1", 6.9],
  ["COc1cc(F)ccc1CN1CCN(c2ncc(C#N)cc2NC(=O)c2cn(C)nc2OC)CC1", 6.3],
  ["CCOc1c(C(=O)Nc2cc(C#N)cnc2N2CCC(Oc3ccc(F)cc3F)CC2)cnn1C", 6.7],
  ["COc1cncc(C(=O)Nc2cc(C#N)ccc2N2CCC(Oc3ccc(F)cc3F)CC2)n1", 7.2],
  ["Cn1cccc(C(=O)Nc2ccc(S(C)(=O)=O)cc2N2CCC(Oc3ccc(F)cc3F)CC2)c1=O", 7.2],
  ["COc1cccc(F)c1C(=O)Nc1cc(S(C)(=O)=O)ccc1N1CCC(Oc2ccc(F)cc2F)CC1", 6.7],
  ["COc1ncc(F)cc1C(=O)Nc1cnc(C(=O)N(C)C)cc1N1CCC(Oc2ccc(F)cc2F)CC1", 7.0]
]}

----------
study-target: GPR6 receptor expressed in CHO-K1 cells (Homo sapiens)
Construct: expressed in transfected cells
protocol-details: In vitro inhibition of cAMP (EC50), cell-based HTRF cAMP assay
condition-notes: inhibition of constitutive cAMP activity of GPR6 in CHO-K1 cells
observable: pEC50, in vitro inhibition of cAMP

{"columns": ["smiles-text", "test-value"],
 "data": [
  ["COCc1cnc(N2CCN(Cc3ccc(F)cc3F)CC2)c(NC(=O)c2cccnc2OC)c1", 7.2],
  ["COc1cc(F)ccc1C(=O)Nc1cc(C#N)cnc1N1CCC(Oc2ccc(F)cc2F)CC1", 7.2],
  ["COc1ncccc1C(=O)Nc1cnc(C(=O)N(C)C)cc1N1CCC(Oc2ccc(F)cc2F)CC1", 7.1],
  ["COc1ncccc1C(=O)Nc1cnc(C)nc1N1CCC(Oc2ccc(F)cc2F)CC1", 6.8]
]}

----------
study-target: GPR6 receptor expressed in CHO-K1 cells (Homo sapiens, UniProt P46095)
Construct: expressed in transfected cells
protocol-details: In vitro inhibition of cAMP (EC50), cell-based HTRF cAMP assay
condition-notes: inhibition of constitutive cAMP activity of GPR6 in CHO-K1 cells
Listed below: pEC50, in vitro inhibition of cAMP values for each entry.
observable: pEC50, in vitro inhibition of cAMP

{"columns": ["smiles-text", "study-target", "reported-relation", "test-value"],
 "data": [
  ["Cn1ncc2ccc(NC(=O)c3ccccn3)c(N3CCC(Oc4ccc(F)cc4F)CC3)c21", "GPR6 receptor expressed in CHO-K1 cells (Homo sapiens, UniProt P46095)", "<", 5.7],
  ["Cn1cccc(C(=O)Nc2cc(C#N)ccc2N2CCC(Oc3cccc(F)c3)CC2)c1=O", "GPR6 receptor expressed in CHO-K1 cells (Homo sapiens, UniProt P46095)", "=", 6.4],
  ["Cn1cccc(C(=O)Nc2cc(C#N)cnc2N2CCC(Oc3ccc(F)cc3F)CC2)c1=O", "GPR6 receptor expressed in CHO-K1 cells (Homo sapiens, UniProt P46095)", "=", 7.4],
  ["COc1ncccc1C(=O)Nc1cc(S(C)(=O)=O)ccc1N1CCN(C(=O)c2ccc(F)cc2C)CC1", "GPR6 receptor expressed in CHO-K1 cells (Homo sapiens, UniProt P46095)", "=", 6.2],
  ["COc1cccc(C(=O)Nc2cc(C#N)ccc2N2CCC(Oc3ccc(F)cc3F)CC2)c1OC", "GPR6 receptor expressed in CHO-K1 cells (Homo sapiens, UniProt P46095)", "=", 7.1],
  ["COc1cccc(C(=O)Nc2cc(C#N)ccc2N2CCC(Oc3ccc(F)cc3F)CC2)n1", "GPR6 receptor expressed in CHO-K1 cells (Homo sapiens, UniProt P46095)", "=", 7.0],
  ["Cn1cccc(C(=O)Nc2cc(C#N)ccc2N2CCC(Oc3ccccc3F)CC2)c1=O", "GPR6 receptor expressed in CHO-K1 cells (Homo sapiens, UniProt P46095)", "=", 6.9],
  ["COc1ncccc1C(=O)Nc1cnccc1N1CCC(Oc2ccc(F)cc2F)CC1", "GPR6 receptor expressed in CHO-K1 cells (Homo sapiens, UniProt P46095)", "=", 6.8],
  ["Cc1cccc(C(=O)Nc2cc(C#N)cnc2N2CCC(Oc3ccc(F)cc3F)CC2)n1", "GPR6 receptor expressed in CHO-K1 cells (Homo sapiens, UniProt P46095)", "=", 7.4],
  ["COc1ccccc1C(=O)Nc1cc(S(C)(=O)=O)ccc1N1CCC(Oc2ccc(F)cc2F)CC1", "GPR6 receptor expressed in CHO-K1 cells (Homo sapiens, UniProt P46095)", "=", 7.3],
  ["COc1ccc(CN2CCN(c3ncc(C#N)cc3NC(=O)c3cn(C)nc3OC)CC2)cc1F", "GPR6 receptor expressed in CHO-K1 cells (Homo sapiens, UniProt P46095)", "=", 6.4],
  ["COc1ccnc(C(=O)Nc2cc(C#N)ccc2N2CCC(Oc3ccc(F)cc3F)CC2)c1", "GPR6 receptor expressed in CHO-K1 cells (Homo sapiens, UniProt P46095)", "=", 6.7],
  ["COc1ncncc1C(=O)Nc1cc(C#N)ccc1N1CCC(Oc2ccc(F)cc2F)CC1", "GPR6 receptor expressed in CHO-K1 cells (Homo sapiens, UniProt P46095)", "=", 7.1],
  ["COc1ncccc1C(=O)Nc1cnc(C(=O)N(C)C)nc1N1CCC(Oc2ccc(F)cc2F)CC1", "GPR6 receptor expressed in CHO-K1 cells (Homo sapiens, UniProt P46095)", "=", 6.4],
  ["Cc1ccc(C(=O)Nc2cc(C#N)ccc2N2CCC(Oc3ccc(F)cc3F)CC2)c(=O)n1C", "GPR6 receptor expressed in CHO-K1 cells (Homo sapiens, UniProt P46095)", "=", 6.8],
  ["N#Cc1ccc(N2CCC(Oc3ccc(F)cc3F)CC2)c(NC(=O)c2cscn2)c1", "GPR6 receptor expressed in CHO-K1 cells (Homo sapiens, UniProt P46095)", "=", 6.4],
  ["COc1ncccc1C(=O)Nc1cc(C#N)ccc1N1CCN(Cc2ccccc2F)CC1", "GPR6 receptor expressed in CHO-K1 cells (Homo sapiens, UniProt P46095)", "=", 6.9],
  ["CCn1nc(C(=O)Nc2cc(C#N)ccc2N2CCC(Oc3ccc(F)cc3F)CC2)cc1C", "GPR6 receptor expressed in CHO-K1 cells (Homo sapiens, UniProt P46095)", "=", 6.8],
  ["COc1nn(C)cc1C(=O)Nc1cc(C#N)cnc1N1CCN(Cc2c(F)cc(F)cc2F)CC1", "GPR6 receptor expressed in CHO-K1 cells (Homo sapiens, UniProt P46095)", "=", 6.8],
  ["COc1c(F)ccc(F)c1C(=O)Nc1cc(C#N)ccc1N1CCC(Oc2ccc(F)cc2F)CC1", "GPR6 receptor expressed in CHO-K1 cells (Homo sapiens, UniProt P46095)", "=", 5.8],
  ["COc1ncccc1C(=O)Nc1cnc(C(=O)NC(C)C)cc1N1CCC(Oc2ccc(F)cc2F)CC1", "GPR6 receptor expressed in CHO-K1 cells (Homo sapiens, UniProt P46095)", "=", 6.8],
  ["Cc1nccc(C(=O)Nc2cc(C#N)ccc2N2CCC(Oc3ccc(F)cc3F)CC2)n1", "GPR6 receptor expressed in CHO-K1 cells (Homo sapiens, UniProt P46095)", "=", 7.2]
]}
